B1: F1*; the commonest letter at each place (parent)
chain: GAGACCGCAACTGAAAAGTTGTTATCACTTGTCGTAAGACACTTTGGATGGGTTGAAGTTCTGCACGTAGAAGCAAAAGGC

Variants of: B1
protocol: fraction ligated after 30 min (ligated reads / total reads); higher = more ligase activity
test conditions: with F1*sub RNA substrate (template-directed ligation), 42 °C
Measured fraction ligated, listed per entry for reference.
observed property: fraction ligated

construct_sequence="GAGACCGCAACTGAAAAGTTGTAATCAGTTGTCGTAAGACACTTTGGATGGGTTGAAGTTCTGCACGTAGAAGCAAAAGGC [T23A C28G]" endpoint_result=0.804
construct_sequence="GAGACCGCAACTGAAAAGTTGTTATCACTTGTCGTAAGAAACTTTAGATGGGTTGAAGTTCTGCACGTAGAAGCAAAAGGC [C40A G46A]" endpoint_result=0.819
construct_sequence="GAGACCGCAACTGAAAAGTTGTTATCACTTGTCGTAAGGCACTTTGGATGGGTTGAGGTTCTGCACGTAGAAGCAAAAGGC [A39G A57G]" endpoint_result=0.823
construct_sequence="GAGACCGCAACTGAAAAGTTGTCATCACTTGTCGTAAGACAATTTGGATGGGTTGAAGTTCTGCACGTAGAAGCAAAAGGC [T23C C42A]" endpoint_result=0.762
construct_sequence="GAGACCGCAACTGAAAAGTTGTTATCACTTGACGTAAGACACTTTGGACGGGTTGAAGTTCTGCACGTAGAAGCAAAAGGC [T32A T49C]" endpoint_result=0.223
construct_sequence="GAGACCGCAACTGAAAAGTTGTCATCACTTGTCTTAAGACACTTTGGATGGGTTGAAGTTCTGCACGTAGAAGCAAAAGGC [T23C G34T]" endpoint_result=0.804
construct_sequence="GAGACCGCAACTGAAAAGTTGTTATCACTTGTCGTAAGACACTGTGGATGGGTTGATGTTCTGCACGTAGAAGCAAAAGGC [T44G A57T]" endpoint_result=0.857
construct_sequence="GAGACCGCAACTGAAAAGTTGTTGTCACTTGTCGTAAGACACATTGGATGGGTTGAAGTTCTGCACGTAGAAGCAAAAGGC [A24G T43A]" endpoint_result=0.765
construct_sequence="GAGACCGCAACTGAAAAGTTGTAATCACTTGTCGTACGACACTTTGGATGGGTTGAAGTTCTGCACGTAGAAGCAAAAGGC [T23A A37C]" endpoint_result=0.82
construct_sequence="GAGACCGCAACTGAAAAGTTGTTATCACTTGTCGTTAGACACTTTGGATGGGTTTAAGTTCTGCACGTAGAAGCAAAAGGC [A36T G55T]" endpoint_result=0.836
construct_sequence="GAGACCGCAACTGAAAAGTTGTGATCACTTGTGGTAAGACACTTTGGATGGGTTGAAGTTCTGCACGTAGAAGCAAAAGGC [T23G C33G]" endpoint_result=0.848
construct_sequence="GAGACCGCAACTGAAAAGTTGTTATCACTTGTCGTAAGACACTTTGGATGGGTTCTTGTTCTGCACGTAGAAGCAAAAGGC [G55C A56T A57T]" endpoint_result=0.0179
construct_sequence="GAGACCGCAACTGAAAAGTTGTTATCACTTGTCGTAAGTCACCTTGGATGGGTTGAAGTTCTGCACGTAGAAGCAAAAGGC [A39T T43C]" endpoint_result=0.795
construct_sequence="GAGACCGCAACTGAAAAGTTGTTATCACTTGTCGTAAGACACTCTGCATGGGTTGAAGTTCTGCACGTAGAAGCAAAAGGC [T44C G47C]" endpoint_result=0.0629
construct_sequence="GAGACCGCAACTGAAAAGTTGTTATCACTTGTCGTATGACACTTTGGATGGGTTGTAGTTCTGCACGTAGAAGCAAAAGGC [A37T A56T]" endpoint_result=0.83
construct_sequence="GAGACCGCAACTGAAAAGTTGTTATCACTTGTCGTAAGATACTTTGGATGGGTTAAAGTTCTGCACGTAGAAGCAAAAGGC [C40T G55A]" endpoint_result=0.841
construct_sequence="GAGACCGCAACTGAAAAGTTGTTATCCCTTGTCGTATGACACTTTGGATGGGTTGAAGTTCTGCACGTAGAAGCAAAAGGC [A27C A37T]" endpoint_result=0.82
construct_sequence="GAGACCGCAACTGAAAAGTTGTTATAACTTGTCGTAAGACACTTTGGATGGGTTGACGTTCTGCACGTAGAAGCAAAAGGC [C26A A57C]" endpoint_result=0.717
construct_sequence="GAGACCGCAACTGAAAAGTTGTTATCACTTGTTGTAAGACACTCTGGATGGGTTGAAGTTCTGCACGTAGAAGCAAAAGGC [C33T T44C]" endpoint_result=0.855
construct_sequence="GAGACCGCAACTGAAAAGTTGTTATCACTTGTCGTTAGACACTTTGGACGGGTTGAAGTTCTGCACGTAGAAGCAAAAGGC [A36T T49C]" endpoint_result=0.742
construct_sequence="GAGACCGCAACTGAAAAGTTGTTATCACTTGTCGTAAGACAGTTAGGATGGGTTGAAGTTCTGCACGTAGAAGCAAAAGGC [C42G T45A]" endpoint_result=0.796
construct_sequence="GAGACCGCAACTGAAAAGTTGTCATAACTTGTCGTAAGACACTTTGGATGGGTTGAAGTTCTGCACGTAGAAGCAAAAGGC [T23C C26A]" endpoint_result=0.371
construct_sequence="GAGACCGCAACTGAAAAGTTGTTAGCACTTGTCGTAAGACCCTTTGGATGGGTTGAAGTTCTGCACGTAGAAGCAAAAGGC [T25G A41C]" endpoint_result=0.0915
construct_sequence="GAGACCGCAACTGAAAAGTTGTTATCACTTGTAGTACGACACTTTGGATGGGTTGAAGTTCTGCACGTAGAAGCAAAAGGC [C33A A37C]" endpoint_result=0.859
construct_sequence="GAGACCGCAACTGAAAAGTTGTTATCAGTTGTCGTAAGATACTTTGGATGGGTTGAAGTTCTGCACGTAGAAGCAAAAGGC [C28G C40T]" endpoint_result=0.806
construct_sequence="GAGACCGCAACTGAAAAGTTGTTATCACTTGTCGTAAGACACTCTGGAAGGGTTGAAGTTCTGCACGTAGAAGCAAAAGGC [T44C T49A]" endpoint_result=0.737
construct_sequence="GAGACCGCAACTGAAAAGTTGTTATCACTTGTCGTAAGACAATGTGGATGGGTTGAAGTTCTGCACGTAGAAGCAAAAGGC [C42A T44G]" endpoint_result=0.805
construct_sequence="GAGACCGCAACTGAAAAGTTGTTATCACTTCTCGTAAGACACTTTGGATGGGTTCAAGTTCTGCACGTAGAAGCAAAAGGC [G31C G55C]" endpoint_result=0.14
construct_sequence="GAGACCGCAACTGAAAAGTTGTTATCACTTGCCGTAAGACACTGTGGATGGGTTGAAGTTCTGCACGTAGAAGCAAAAGGC [T32C T44G]" endpoint_result=0.793
construct_sequence="GAGACCGCAACTGAAAAGTTGTTATCACGTGTCGTAAGACACTTTGGATAGGTTGAAGTTCTGCACGTAGAAGCAAAAGGC [T29G G50A]" endpoint_result=0.345
construct_sequence="GAGACCGCAACTGAAAAGTTGTTATTACTTGTCGTAAGACACTTTGGAGGGGTTGAAGTTCTGCACGTAGAAGCAAAAGGC [C26T T49G]" endpoint_result=0.405
construct_sequence="GAGACCGCAACTGAAAAGTTGTTATCACTGGTCGTAAGAGACTTTGGATGGGTTGAAGTTCTGCACGTAGAAGCAAAAGGC [T30G C40G]" endpoint_result=0.81
construct_sequence="GAGACCGCAACTGAAAAGTTGTTATCACTTGTCGTAAGACAATTTGCATGGGTTGAAGTTCTGCACGTAGAAGCAAAAGGC [C42A G47C]" endpoint_result=0.695
construct_sequence="GAGACCGCAACTGAAAAGTTGTTATCACTTGTCGTAACACACTTTGGATGGGTTGGAGTTCTGCACGTAGAAGCAAAAGGC [G38C A56G]" endpoint_result=0.7
construct_sequence="GAGACCGCAACTGAAAAGTTGTTATCACTTGTGGTACGACACTTTGGATGGGTTGAAGTTCTGCACGTAGAAGCAAAAGGC [C33G A37C]" endpoint_result=0.824
construct_sequence="GAGACCGCAACTGAAAAGTTGTTAACACTTGTCGTAAGACACTTTGGATCGGTTGAAGTTCTGCACGTAGAAGCAAAAGGC [T25A G50C]" endpoint_result=0.267
